Cited source: the supplement of paper PMC6555819

Tested on: RXRa DBDmut IVT, anti-RXR (DBD mutation: RXRa K156A/R161A, NR concentration 90 nM)
EXPERIMENT_SUMMARY: PBM binding z-score (relative to random genomic background probes); higher = stronger binding; sequences stand for … in GC…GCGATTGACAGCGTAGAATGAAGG
VALUE_KIND: PBM binding z-score
Lab note: jot the number down without any unit.

Could you share which PBM binding z-score value was measured for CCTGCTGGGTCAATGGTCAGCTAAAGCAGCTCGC ? 0.787

Now the same for AGAATGAGGTTAAGATCAGGTAAACAGAATACAT 1.17

# repeat for CAAACTAGGTCAAGAGCTCAAAGTCCGCTTCCCG 1.34

Do the same for TCTAGCAGGCCAGAGGGTCACACAAGAGGTACGG please 0.175

Another: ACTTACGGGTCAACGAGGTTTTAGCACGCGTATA 2.16

Entry to check: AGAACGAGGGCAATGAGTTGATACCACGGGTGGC 2.06

====

Provide the recorded PBM binding z-score for the entries that follow.
Test system: PXR:RXRa (NR concentration 270 nM, RXRa partner concentration 90 nM)
EXPERIMENT_SUMMARY: PBM binding z-score (relative to random genomic background probes); higher = stronger binding; sequences stand for … in GC…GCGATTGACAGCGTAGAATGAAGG
Respond with the number and no other words.

GET /values?readout=PBM binding z-score&system=PXR:RXRa (NR concentration 270 nM, RXRa partner concentration 90 nM)&item= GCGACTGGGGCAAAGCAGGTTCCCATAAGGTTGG -0.524

Moving on to the next sequence: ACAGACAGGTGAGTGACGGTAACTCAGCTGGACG -0.527

Repeat with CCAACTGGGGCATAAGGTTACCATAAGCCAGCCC 0.561

Consider next the sequence AGAATGAGGTTACCAAAGATCAGGGAGACGCTTG in the same way. 1.53

Another sequence to check: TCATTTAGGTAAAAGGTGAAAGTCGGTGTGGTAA 1.42

Also check CCTTATGGGTCACGAGGTTATAGCACGACGAGCG 3.9

Repeat with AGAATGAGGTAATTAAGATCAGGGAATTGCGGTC -0.0568

Now this one: AAAATGAGGTTATACGTAGATCAGGGAAGAAAGT 1.37

Lookup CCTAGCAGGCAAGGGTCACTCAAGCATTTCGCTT 2.99

Also, CCTTACGGGTCAAGGTTATAGTACGGGTGGTACG please. 3.75

Also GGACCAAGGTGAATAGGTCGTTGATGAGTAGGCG ? 0.838

// next record CGAACTAGGTCAAGGACAGTGCATCTCCGCACGC 2.24

====

Test system: LXRb homodimer (NR concentration 270 nM)
EXPERIMENT_SUMMARY: PBM binding z-score (relative to random genomic background probes); higher = stronger binding; sequences stand for … in GC…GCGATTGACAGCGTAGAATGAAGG
Class true (1): PBM binding z-score at least -0.06. Class false (0): PBM binding z-score below -0.06.

Would you say AGTACGAGGGCAATGAGTTGATAGCACGGGTGGC shows PBM binding z-score at minimum -0.06? false (0)

Let us now turn to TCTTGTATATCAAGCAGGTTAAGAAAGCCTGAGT true (1)

# repeat for CCATACAGGTGAGAAGGTAACTCAGCCTCGATTA false (0)

Consider next the sequence CCGACTGGGCCATCAGGTCATTGATATCAACGTT in the same way. false (0)

Another sequence to look at: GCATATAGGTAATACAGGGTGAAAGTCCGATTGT false (0)

Next: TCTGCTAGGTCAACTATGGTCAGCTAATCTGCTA true (1)

====

Could you please report measured PBM binding z-score for the items listed next?
Tested on: RARb homodimer (NR concentration 270 nM)
EXPERIMENT_SUMMARY: PBM binding z-score (relative to random genomic background probes); higher = stronger binding; sequences stand for … in GC…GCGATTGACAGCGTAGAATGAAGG
Number only, no unit.

Using the record for AATTCAGGGTCATCGTAGGCCAGAGTACGCACAG , report its PBM binding z-score. 3.87

Next entry: CCTACTGGGCCACGAAAGGTCAATGATTCAGTGA 4.81

Now this one: TCAGACAGGTGAAGGAAACTCAGGTACGCAGTCG 0.458

Also TAGCCTCGGTCATGGGCCAGTATACCACGCGAAC , if possible. 1.72

Now try GCTAGTTGGTCAGTAATAGGTCACACACCGGTCG . 3.86

Quick one: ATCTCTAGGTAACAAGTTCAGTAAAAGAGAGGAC 2.18

Continue with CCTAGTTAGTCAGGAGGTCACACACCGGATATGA 4.28

Would you mind doing AGAATGAGGTTATTAGGATCAGGGAATTGCGGTC as well? 1.24

Item: TCATATAGGTAAAGGTTAAAGTCGAACGATATGA 2

Let us now turn to TCGTATAGGTAAACAGGTGAAAGTCCGTAAGTTA 1.14

Next record, please: CAAACTAGGTCACGAAAGGTCCAAGTCGAATGAC 3.73

Next record, please: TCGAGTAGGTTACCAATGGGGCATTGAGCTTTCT 0.567

====

System: PPARg:RXRa DBDmut IVT, anti-RXR (DBD mutation: RXRa K156A/R161A, NR concentration 270 nM, RXRa partner concentration 90 nM)
EXPERIMENT_SUMMARY: PBM binding z-score (relative to random genomic background probes); higher = stronger binding; sequences stand for … in GC…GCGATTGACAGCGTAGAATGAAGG
VALUE_KIND: PBM binding z-score
Respond numerically, and do not add a unit to the figure.

So what's the measured PBM binding z-score for this one? TCTCGGAGGACACGAAAGATCAGAGCTCGACATC 1.5

Item: CGAACTAGGTCAAGGAAAGTGAATCTCCGCACGC 7.89

Continue with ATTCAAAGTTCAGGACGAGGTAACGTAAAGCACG -0.268

Repeat for the following sequence: TGTCAAAGTTCAAAGGTACCGTAAGTATCCACAC 0.615

Again, but for TCTCGGAGGAGACGAAGGTCAGAGCTTTCCAGAG 0.916

Moving on to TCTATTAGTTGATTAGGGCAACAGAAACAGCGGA 2.04

Okay, and CCTACTGGGCCACGAAAGGTCATTGAATCAGTGA ? 5.88

Input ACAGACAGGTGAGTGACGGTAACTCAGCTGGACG 0.522

Note, next up: TAGCCTAGGTCATATCGGGCCAGTATACGCTATA 1.18

Now consider CGTCCAAGGTCATAGGAGGTCCGTGAAGACAGAT and answer again. 3.08

Entry CTGACTGGGGCAAGGTTACCATAACGCACAGCCA please 4.8

Lookup CGAACTAGGTCATCCAGGACGGTGAATACATTGA 7.81

====

Test system: RARg homodimer (NR concentration 270 nM)
EXPERIMENT_SUMMARY: PBM binding z-score (relative to random genomic background probes); higher = stronger binding; sequences stand for … in GC…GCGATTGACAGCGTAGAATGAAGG
VALUE_KIND: PBM binding z-score

Which measured PBM binding z-score belongs to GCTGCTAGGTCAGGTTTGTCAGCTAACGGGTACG , tested on RARg homodimer (NR concentration 270 nM)? 2.94

Would you mind doing ATCTGTAGGTAAGACTCAGTTCAGTGAAGAACGC as well? -0.0533

// repeat for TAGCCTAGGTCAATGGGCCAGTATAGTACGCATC and report 4.52

And for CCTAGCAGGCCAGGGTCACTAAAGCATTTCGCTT ? 2.41

And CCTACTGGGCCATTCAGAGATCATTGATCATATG ? 0.345

Field entry: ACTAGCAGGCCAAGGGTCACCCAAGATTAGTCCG 4.32

Another sequence: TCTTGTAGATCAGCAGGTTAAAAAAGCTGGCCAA -0.402

Moving on to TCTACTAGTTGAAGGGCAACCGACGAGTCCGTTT 0.311

Would you kindly repeat that for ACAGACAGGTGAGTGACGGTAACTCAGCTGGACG ? 0.362

Now this one: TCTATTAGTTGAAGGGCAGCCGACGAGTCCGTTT 0.318

Quick one: CAAACTAGGTCATGAAAGGTCAAAGTCGAATGAC 7.78

Same read-out for ACTCGGAGGACAAAGGTCAGAGCTACGCCAGTGA ? 5.23

Please do the same for CGAACTAGCTCATCCAGGACAGTGAATACATTGA as well. 0.156

// same read-out, input: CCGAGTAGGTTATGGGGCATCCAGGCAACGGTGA 0.586

Also check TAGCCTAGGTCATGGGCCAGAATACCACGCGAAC 4.29

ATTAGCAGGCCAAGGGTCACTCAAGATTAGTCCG ? 3.71

Now this one: CAAACTAGGTCCCAGAGGTCAAAGTCCGTGCGTA 4.38

Another sequence to check: TCTAGCATGCCAGAGGGTCACTCAAGAGGTACGG 2.22

Field entry: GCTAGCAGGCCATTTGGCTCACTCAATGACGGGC -0.0728

Here is the next sequence: GCATATAGTTAATACAAGGTGAAAGTCCGATTGT 0.365

What would you report for TAACCTAGGTCATTGGGCCAGTATAGTACGCATC ? 4.75

Next entry: TCGAGTAGGTTAGTCGGAGCATTCAGCCAACATA -0.343

Same again, this time with TAGCCTAGGTCTTTGGGCCAGTATAGTACGCATC -0.164

Item: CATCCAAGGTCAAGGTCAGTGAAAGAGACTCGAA 7.48

Lookup TTACCAATGTGAGCTGAGGTCGTTGATCCAACTC -0.299

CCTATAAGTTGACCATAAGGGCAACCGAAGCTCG ? 1.31

Try this sequence too: TCTATTAGTTGATTAGGGCAACCAAAACAGCGGA 0.677

Also GCTTGTAGATCAAGGTTAAGGAAGACTAAGCTAA , if possible. 0.222

Try this sequence too: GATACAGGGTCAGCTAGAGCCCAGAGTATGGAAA 4.33

Consider next the sequence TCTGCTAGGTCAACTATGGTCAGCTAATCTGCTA in the same way. 5.22

And then TCTGCTAGGTCTGTTGGTCAGCTAACGAGCTGCC , what is it? -0.599

Similarly, CGACCTAGGTCAGAACAGGACAGTGAAGGATGAT ? 4.04

Lookup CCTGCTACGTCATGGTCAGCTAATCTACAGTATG -0.0549

Then this sequence: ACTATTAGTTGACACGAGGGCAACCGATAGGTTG 1.34

Now consider GGAACGAGGGCAAGTTCATAGCAGAGTTTGATGG and answer again. 3.16

Please answer likewise for TCATATAGGTAAAGGTGAGAGTCGAACGATATGA 1.33

Consider next the sequence GCGACTGGGGCAAAGCAGGTTACTATAAGGTTGG in the same way. 0.689

Subsequent entry: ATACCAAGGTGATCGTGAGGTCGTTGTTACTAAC 0.637

Could you do the same for CGTTCAAGGTCAATGCTAGGTCAGTGAAAGCATT , please? 7.18

Also need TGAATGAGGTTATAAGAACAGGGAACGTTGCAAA , thanks. 1

Next entry: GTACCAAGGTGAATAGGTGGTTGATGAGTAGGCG 0.628

Note, next up: TCTAGTTGGTCAACGGTCACACACTCGAAATGCG 2.16

Now consider TCTCGGAGGACACGCAAGGTCAGAGCTCGACATC and answer again. 3.84

Next sequence: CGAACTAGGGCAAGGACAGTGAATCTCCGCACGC 1.17
